# Assay system: Influenza A virus M2 proton channel (A/TW/4845/1999 H1N1)
# Test: M2 proton channel binding, NMR based, influenza A virus H1N1 strain (AID 1549)
# Condition: NMR binding screen, M2 protein
Active and inactive are the calls of the source. How the calls were made is not given here.
Consider the following molecules and their measured Kd readings.

>  <Molecule>
Cn1cnc2c(=O)[nH]cc([N+](=O)[O-])c21

>  <Assay system>
Influenza A virus M2 proton channel (A/TW/4845/1999 H1N1)

>  <Kd>
> 4 mM (inactive)

$$$$
>  <Molecule>
O=C1CC(NCc2ccco2)C(=O)NN1 (centres undefined)

>  <Assay system>
Influenza A virus M2 proton channel (A/TW/4845/1999 H1N1)

>  <Kd>
> 4 mM (inactive)

$$$$
>  <Molecule>
OCc1ccc2c(c1)OCO2

>  <Assay system>
Influenza A virus M2 proton channel (A/TW/4845/1999 H1N1)

>  <Kd>
> 4 mM (inactive)

$$$$
>  <Molecule>
Cc1nnc(NC(=O)C(C)Sc2nncn2C)s1 (centres undefined)

>  <Assay system>
Influenza A virus M2 proton channel (A/TW/4845/1999 H1N1)

>  <Kd>
> 4 mM (inactive)

$$$$
>  <Molecule>
CCN1CCc2c(sc(N)c2C#N)C1

>  <Assay system>
Influenza A virus M2 proton channel (A/TW/4845/1999 H1N1)

>  <Kd>
> 4 mM (inactive)

$$$$
>  <Molecule>
OCc1ccc2nonc2c1

>  <Assay system>
Influenza A virus M2 proton channel (A/TW/4845/1999 H1N1)

>  <Kd>
> 4 mM (inactive)

$$$$
>  <Molecule>
C=C(C)C1Cc2c(ccc(C(=O)O)c2O)O1 (centres undefined)

>  <Assay system>
Influenza A virus M2 proton channel (A/TW/4845/1999 H1N1)

>  <Kd>
> 4 mM (inactive)

$$$$
>  <Molecule>
O=S(=O)(NCc1ccco1)N1CCOCC1

>  <Assay system>
Influenza A virus M2 proton channel (A/TW/4845/1999 H1N1)

>  <Kd>
> 4 mM (inactive)

$$$$
>  <Molecule>
C=CC(=O)N1CC2CC(C1)c1cccc(=O)n1C2 (centres undefined)

>  <Assay system>
Influenza A virus M2 proton channel (A/TW/4845/1999 H1N1)

>  <Kd>
> 4 mM (inactive)

$$$$
>  <Molecule>
O=C(Cc1ccc(F)cc1)Nc1ncccn1

>  <Assay system>
Influenza A virus M2 proton channel (A/TW/4845/1999 H1N1)

>  <Kd>
> 4 mM (inactive)

$$$$
>  <Molecule>
O=S1(=O)CCC(NC(=S)N2CCOCC2)C1 (centres undefined)

>  <Assay system>
Influenza A virus M2 proton channel (A/TW/4845/1999 H1N1)

>  <Kd>
> 4 mM (inactive)

$$$$
>  <Molecule>
COc1ccc(-c2coc3cc(OC(C)=O)cc(OC(C)=O)c3c2=O)cc1

>  <Assay system>
Influenza A virus M2 proton channel (A/TW/4845/1999 H1N1)

>  <Kd>
> 4 mM (inactive)

$$$$
>  <Molecule>
Nc1cc(F)cc(F)c1

>  <Assay system>
Influenza A virus M2 proton channel (A/TW/4845/1999 H1N1)

>  <Kd>
> 4 mM (inactive)

$$$$
>  <Molecule>
Cc1cc(C(=O)Nc2cccnc2)no1

>  <Assay system>
Influenza A virus M2 proton channel (A/TW/4845/1999 H1N1)

>  <Kd>
> 4 mM (inactive)

$$$$

----------
# Assay system: Influenza A virus M2 proton channel (A/TW/4845/1999 H1N1)
# Test: M2 proton channel binding, NMR based, influenza A virus H1N1 strain (AID 1549)
# Condition: NMR binding screen, M2 protein
The source made the active and inactive calls. The rule behind the calls is not given here.

>  <Compound>
CS(=O)(=O)N1CCN(C(=O)c2ccccc2)CC1

>  <Assay system>
Influenza A virus M2 proton channel (A/TW/4845/1999 H1N1)

>  <Kd>
> 4 mM (inactive)

$$$$
>  <Compound>
COc1ccc2c(c1)C(NC(C)=O)C(=O)N2C (stereo not drawn)

>  <Assay system>
Influenza A virus M2 proton channel (A/TW/4845/1999 H1N1)

>  <Kd>
> 4 mM (inactive)

$$$$
>  <Compound>
CC1(C)O[C@H]2[C@H](O)C[C@](O)(C(N)=O)C[C@H]2O1

>  <Assay system>
Influenza A virus M2 proton channel (A/TW/4845/1999 H1N1)

>  <Kd>
> 4 mM (inactive)

$$$$

----------
# Assay system: Influenza A virus M2 proton channel (A/TW/4845/1999 H1N1)
# Test: M2 proton channel binding, NMR based, influenza A virus H1N1 strain (AID 1549)
# Condition: NMR binding screen, M2 protein
The source made the active and inactive calls. The rule behind the calls is not given here.

>  <Compound>
O=C(O)CC[N+](=O)[O-]

>  <Assay system>
Influenza A virus M2 proton channel (A/TW/4845/1999 H1N1)

>  <Kd>
> 4 mM (inactive)

$$$$
>  <Compound>
COc1cc(OC)c2c(=O)c(O)c(-c3ccc(OC)c(OC)c3)oc2c1

>  <Assay system>
Influenza A virus M2 proton channel (A/TW/4845/1999 H1N1)

>  <Kd>
> 4 mM (inactive)

$$$$
>  <Compound>
COC(=O)Cc1csc(N)n1

>  <Assay system>
Influenza A virus M2 proton channel (A/TW/4845/1999 H1N1)

>  <Kd>
> 4 mM (inactive)

$$$$
>  <Compound>
Cc1nnsc1C(=O)Nc1ccccn1

>  <Assay system>
Influenza A virus M2 proton channel (A/TW/4845/1999 H1N1)

>  <Kd>
> 4 mM (inactive)

$$$$
>  <Compound>
C[C@@H]1CC[C@H]2[C@@H](C)C(=O)O[C@@H]3OC4(C)CC[C@@H]1[C@]32OO4

>  <Assay system>
Influenza A virus M2 proton channel (A/TW/4845/1999 H1N1)

>  <Kd>
> 4 mM (inactive)

$$$$
>  <Compound>
O=C(O)c1ccc(N2CCCCC2)cc1

>  <Assay system>
Influenza A virus M2 proton channel (A/TW/4845/1999 H1N1)

>  <Kd>
> 4 mM (inactive)

$$$$
>  <Compound>
CCN1CCn2c1nc(N1CCOCC1)nc2=O

>  <Assay system>
Influenza A virus M2 proton channel (A/TW/4845/1999 H1N1)

>  <Kd>
> 4 mM (inactive)

$$$$
>  <Compound>
CN(c1ccccc1C(=O)N1CCCC1)S(C)(=O)=O

>  <Assay system>
Influenza A virus M2 proton channel (A/TW/4845/1999 H1N1)

>  <Kd>
> 4 mM (inactive)

$$$$
>  <Compound>
N#CCCn1ccnc1-c1ccccc1

>  <Assay system>
Influenza A virus M2 proton channel (A/TW/4845/1999 H1N1)

>  <Kd>
> 4 mM (inactive)

$$$$
>  <Compound>
Cc1ccc(Nc2nnns2)cc1C

>  <Assay system>
Influenza A virus M2 proton channel (A/TW/4845/1999 H1N1)

>  <Kd>
> 4 mM (inactive)

$$$$
>  <Compound>
CC(=O)Nc1nnc(-c2ccccc2S(C)(=O)=O)o1

>  <Assay system>
Influenza A virus M2 proton channel (A/TW/4845/1999 H1N1)

>  <Kd>
> 4 mM (inactive)

$$$$
>  <Compound>
CC(C)c1c(O)ccc2c1CCC1[C@@](C)(CO)CCC[C@]21C (stereo not given in full)

>  <Assay system>
Influenza A virus M2 proton channel (A/TW/4845/1999 H1N1)

>  <Kd>
> 4 mM (inactive)

$$$$
>  <Compound>
COC(=O)c1cc2cc(N)ccc2s1

>  <Assay system>
Influenza A virus M2 proton channel (A/TW/4845/1999 H1N1)

>  <Kd>
> 4 mM (inactive)

$$$$
>  <Compound>
CCSc1nnc2[nH]c(=O)cc(C)n12

>  <Assay system>
Influenza A virus M2 proton channel (A/TW/4845/1999 H1N1)

>  <Kd>
> 4 mM (inactive)

$$$$
>  <Compound>
Cc1ccc2c(c1)CCCN2C(=O)c1c(C)noc1C

>  <Assay system>
Influenza A virus M2 proton channel (A/TW/4845/1999 H1N1)

>  <Kd>
> 4 mM (inactive)

$$$$
>  <Compound>
OCc1csc(-c2cccs2)n1

>  <Assay system>
Influenza A virus M2 proton channel (A/TW/4845/1999 H1N1)

>  <Kd>
> 4 mM (inactive)

$$$$
>  <Compound>
Nc1ccc(Cc2ccncc2)cc1

>  <Assay system>
Influenza A virus M2 proton channel (A/TW/4845/1999 H1N1)

>  <Kd>
> 4 mM (inactive)

$$$$
>  <Compound>
NC(=O)c1ccc(NC(=O)c2ccco2)cc1

>  <Assay system>
Influenza A virus M2 proton channel (A/TW/4845/1999 H1N1)

>  <Kd>
> 4 mM (inactive)

$$$$
>  <Compound>
Cc1onc(-c2ccccc2)c1C(=O)O

>  <Assay system>
Influenza A virus M2 proton channel (A/TW/4845/1999 H1N1)

>  <Kd>
> 4 mM (inactive)

$$$$
>  <Compound>
OCCNC(=S)Nc1ccccc1

>  <Assay system>
Influenza A virus M2 proton channel (A/TW/4845/1999 H1N1)

>  <Kd>
> 4 mM (inactive)

$$$$
>  <Compound>
OCC1COc2ccccc2O1 (stereo not given)

>  <Assay system>
Influenza A virus M2 proton channel (A/TW/4845/1999 H1N1)

>  <Kd>
> 4 mM (inactive)

$$$$
>  <Compound>
Nc1nc(SCC(=O)c2ccc([N+](=O)[O-])cc2)n[nH]1

>  <Assay system>
Influenza A virus M2 proton channel (A/TW/4845/1999 H1N1)

>  <Kd>
> 4 mM (inactive)

$$$$
>  <Compound>
Cc1ccc(C(O)c2nccn2C)o1 (stereo not given)

>  <Assay system>
Influenza A virus M2 proton channel (A/TW/4845/1999 H1N1)

>  <Kd>
> 4 mM (inactive)

$$$$
>  <Compound>
O=C(Nc1nccs1)c1ccc(=O)[nH]n1

>  <Assay system>
Influenza A virus M2 proton channel (A/TW/4845/1999 H1N1)

>  <Kd>
> 4 mM (inactive)

$$$$
>  <Compound>
O=C(CSc1nc2ccccc2[nH]1)N1CCCCC1

>  <Assay system>
Influenza A virus M2 proton channel (A/TW/4845/1999 H1N1)

>  <Kd>
> 4 mM (inactive)

$$$$
>  <Compound>
COc1cc2c3cc1Oc1cc(ccc1O)C[C@@H]1c4c(cc(OC)c(O)c4Oc4ccc(cc4)C[C@@H]3N(C)CC2)CC[N+]1(C)C

>  <Assay system>
Influenza A virus M2 proton channel (A/TW/4845/1999 H1N1)

>  <Kd>
> 4 mM (inactive)

$$$$
>  <Compound>
CC1CN(Cc2ccccn2)CCC1=O (stereo not given)

>  <Assay system>
Influenza A virus M2 proton channel (A/TW/4845/1999 H1N1)

>  <Kd>
> 4 mM (inactive)

$$$$
>  <Compound>
COc1ccccc1NC(C)=O

>  <Assay system>
Influenza A virus M2 proton channel (A/TW/4845/1999 H1N1)

>  <Kd>
> 4 mM (inactive)

$$$$
>  <Compound>
CC(C)(C)c1ccc(SCC(N)=O)cc1

>  <Assay system>
Influenza A virus M2 proton channel (A/TW/4845/1999 H1N1)

>  <Kd>
> 4 mM (inactive)

$$$$
>  <Compound>
COc1cc(C(=S)N2CCCC2)cc(Cl)c1O

>  <Assay system>
Influenza A virus M2 proton channel (A/TW/4845/1999 H1N1)

>  <Kd>
> 4 mM (inactive)

$$$$
>  <Compound>
C=C[C@@](C)(O)CCC1C(=C)C[C@H](OC(C)=O)C2C(C)(C)CCCC12C (stereo not given in full)

>  <Assay system>
Influenza A virus M2 proton channel (A/TW/4845/1999 H1N1)

>  <Kd>
> 4 mM (inactive)

$$$$
>  <Compound>
Cc1[nH]c2ccccc2c1C=Nn1cncn1

>  <Assay system>
Influenza A virus M2 proton channel (A/TW/4845/1999 H1N1)

>  <Kd>
> 4 mM (inactive)

$$$$
>  <Compound>
CCc1c(C(=O)Nc2ccncc2)csc1C

>  <Assay system>
Influenza A virus M2 proton channel (A/TW/4845/1999 H1N1)

>  <Kd>
> 4 mM (inactive)

$$$$
>  <Compound>
CC(NC(=O)c1ccco1)c1ccc2c(c1)OCCO2 (stereo not given)

>  <Assay system>
Influenza A virus M2 proton channel (A/TW/4845/1999 H1N1)

>  <Kd>
> 4 mM (inactive)

$$$$
>  <Compound>
O=C(c1ccccc1)c1ccccc1C(=O)N1CCOCC1

>  <Assay system>
Influenza A virus M2 proton channel (A/TW/4845/1999 H1N1)

>  <Kd>
> 4 mM (inactive)

$$$$
>  <Compound>
NC(=O)CC1Sc2ccccc2NC1=O (stereo not given)

>  <Assay system>
Influenza A virus M2 proton channel (A/TW/4845/1999 H1N1)

>  <Kd>
> 4 mM (inactive)

$$$$
>  <Compound>
CC1=C(/C=C/C(C)=C/C=C/C(C)=C/C=C/C=C(C)/C=C/C=C(C)/C=C/C(=O)[C@]2(C)C[C@@H](O)CC2(C)C)C(C)(C)C[C@H](O)C1

>  <Assay system>
Influenza A virus M2 proton channel (A/TW/4845/1999 H1N1)

>  <Kd>
> 4 mM (inactive)

$$$$
>  <Compound>
O=C(NC1=NCCS1)c1cccc(F)c1

>  <Assay system>
Influenza A virus M2 proton channel (A/TW/4845/1999 H1N1)

>  <Kd>
> 4 mM (inactive)

$$$$
>  <Compound>
CCC1(CC)C(=O)N=C(N)NC1=O

>  <Assay system>
Influenza A virus M2 proton channel (A/TW/4845/1999 H1N1)

>  <Kd>
> 4 mM (inactive)

$$$$
>  <Compound>
O=C1CSC(=O)N1CN1CCCC1

>  <Assay system>
Influenza A virus M2 proton channel (A/TW/4845/1999 H1N1)

>  <Kd>
> 4 mM (inactive)

$$$$
>  <Compound>
COc1ccc2c(c1)OC[C@@H](Cc1ccc(OC)c(OC)c1)[C@H]2O

>  <Assay system>
Influenza A virus M2 proton channel (A/TW/4845/1999 H1N1)

>  <Kd>
> 4 mM (inactive)

$$$$
>  <Compound>
c1ccc(-c2nc3ccccc3nc2-c2ccccn2)nc1

>  <Assay system>
Influenza A virus M2 proton channel (A/TW/4845/1999 H1N1)

>  <Kd>
> 4 mM (inactive)

$$$$
>  <Compound>
CC(=O)N1CC2(C)CN(C(C)=O)CC(C)(C1)C2

>  <Assay system>
Influenza A virus M2 proton channel (A/TW/4845/1999 H1N1)

>  <Kd>
> 4 mM (inactive)

$$$$
>  <Compound>
C=CCc1cc(C(=O)N2CCCCC2)ccc1O

>  <Assay system>
Influenza A virus M2 proton channel (A/TW/4845/1999 H1N1)

>  <Kd>
> 4 mM (inactive)

$$$$
>  <Compound>
O=[N+]([O-])c1c[n+]([O-])n(-c2ccccc2)n1

>  <Assay system>
Influenza A virus M2 proton channel (A/TW/4845/1999 H1N1)

>  <Kd>
> 4 mM (inactive)

$$$$
